Molecular target: T1, human FM3 (NMUR1) (human)
T1 chain: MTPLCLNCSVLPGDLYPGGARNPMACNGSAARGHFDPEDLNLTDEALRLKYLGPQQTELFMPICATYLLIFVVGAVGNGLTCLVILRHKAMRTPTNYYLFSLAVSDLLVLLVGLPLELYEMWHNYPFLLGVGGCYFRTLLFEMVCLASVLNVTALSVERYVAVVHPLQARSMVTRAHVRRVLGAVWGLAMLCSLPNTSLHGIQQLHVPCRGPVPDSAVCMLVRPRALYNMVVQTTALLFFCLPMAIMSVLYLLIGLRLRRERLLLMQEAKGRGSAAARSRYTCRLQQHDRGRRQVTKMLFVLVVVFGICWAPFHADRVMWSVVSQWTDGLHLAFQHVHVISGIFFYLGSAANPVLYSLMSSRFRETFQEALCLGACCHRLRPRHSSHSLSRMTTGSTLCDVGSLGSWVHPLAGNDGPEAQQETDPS
Test: Scatchard analysis, radioligand filter binding, human FM3/CHO membrane fraction
Where no end group is shown, it is not given here.
metric: Kd (µM)
Field: numeric (µM). Do not append units.

Entry YFLFRPRN-NH2 (also: 125I label (position not given here)) [125I-NMU8 (radiation labeled ligand)] has what Kd? 164
